experiment: xn = mol fraction of the nth substance listed, in the solute-free solvent; settings: 308.15 K; x2 = 0.2
Grouping rule (solubility (g/100 g solution)): low range: < 3; mid range: ≥ 3 and < 10; high range: ≥ 10

These recorded examples may help you get a feel for the data.
compound	labelValue
O=C(O)c1ccc(C(=O)O)o1 + O + COCCOC	low range
CCCCOc1ccc(C(=O)CCN2CCCCC2)cc1.Cl + CCO + O	high range
O=C1CCc2ccc(OCCCCN3CCN(c4cccc(Cl)c4Cl)CC3)cc2N1 + CCC(C)=O + CCOC(C)=O	low range
COC1=CC(=O)CC(C)C12Oc1c(Cl)c(OC)cc(OC)c1C2=O (stereo not given) + CC(C)=O + CC(C)O	low range
O=C(O)c1ccc(C(=O)O)o1 + C1CCOC1 + O	mid range

Q) Hey, which category is O=C(O)c1ccc(C(=O)O)o1 + C1COCCO1 + O in, do you know?
A) mid range

Q) Could you tell me which band O=C1CCc2ccc(OCCCCN3CCN(c4cccc(Cl)c4Cl)CC3)cc2N1 + CCC(C)=O + CCCO belongs to?
A) low range

Q) Returns: class label. Input: CCCCOc1ccc(C(=O)CCN2CCCCC2)cc1.Cl + CO + C1CCOC1
A) high range

Q) Exercise: read the entry CCCCOc1ccc(C(=O)CCN2CCCCC2)cc1.Cl + CCO + CCOC(C)=O and state which class it falls under.
A) high range

====

assay: xn = mol fraction of the nth substance listed, in the solute-free solvent; conditions: 308.15 K; x2 = 0.1
endpointLabel: solubility (g/100 g solution)

Observe how each entry below is paired with its result.
compound	solubility (g/100 g solution)
O=C(O)c1ccc(C(=O)O)o1 + O + COCCOCCOC	1.42
CCCCOc1ccc(C(=O)CCN2CCCCC2)cc1.Cl + CCO + CCCCCC	5.33
O=C(O)c1ccc(C(=O)O)o1 + O + COCCOC	1.44
CCCCOc1ccc(C(=O)CCN2CCCCC2)cc1.Cl + CO + C1CCOC1	8.14
O=C1CCc2ccc(OCCCCN3CCN(c4cccc(Cl)c4Cl)CC3)cc2N1 + CCC(C)=O + CCCO	2.04
CCCCOc1ccc(C(=O)CCN2CCCCC2)cc1.Cl + CCO + CCOC(C)=O	11.7

Q) I have this compound here, O=C1CCc2ccc(OCCCCN3CCN(c4cccc(Cl)c4Cl)CC3)cc2N1 + CCC(C)=O + CC(C)=O , and I need its recorded solubility (g/100 g solution).
A) 2.61

Q) Query (compound): COC1=CC(=O)CC(C)C12Oc1c(Cl)c(OC)cc(OC)c1C2=O (centres undefined) + CCC(C)=O + CC(C)O ; field requested: solubility (g/100 g solution)
A) 0.463

Q) Which solubility (g/100 g solution) value belongs to COC1=CC(=O)CC(C)C12Oc1c(Cl)c(OC)cc(OC)c1C2=O (centres undefined) + CC(=O)CC(C)C + CC(C)O ?
A) 0.47

====

experiment: xn = mol fraction of the nth substance listed, in the solute-free solvent; conditions: 323.15 K; x2 = 0.3
endpointLabel: solubility (g/100 g solution)
Give the value as a plain number.

Study these solved cases before continuing.
compound	solubility (g/100 g solution)
CCCCOc1ccc(C(=O)CCN2CCCCC2)cc1.Cl + CCO + CCOC(C)=O	27.7
O=C(O)C1CSCN1 (stereo not drawn) + O + CC#N	0.0978
CCCCOc1ccc(C(=O)CCN2CCCCC2)cc1.Cl + CCO + O	63.5
O=C(O)c1ccc(C(=O)O)o1 + O + COCCOC	4.39
COC1=CC(=O)CC(C)C12Oc1c(Cl)c(OC)cc(OC)c1C2=O (stereo not drawn) + CC(=O)CC(C)C + CC(C)O	1.3
CC(=O)OC(c1ccccc1)C(Cl)(Cl)Cl (stereo not drawn) + CC(C)O + O	4.2

Q) Please report the recorded solubility (g/100 g solution) for CCCCOc1ccc(C(=O)CCN2CCCCC2)cc1.Cl + CO + C1CCOC1 .
A) 30

Q) If you can, please state the reported solubility (g/100 g solution) value of O=C(O)c1ccc(C(=O)O)o1 + C1COCCO1 + O .
A) 5.21

Q) Need solubility (g/100 g solution), item COC1=CC(=O)CC(C)C12Oc1c(Cl)c(OC)cc(OC)c1C2=O (stereo not drawn) + CC(C)=O + CC(C)O
A) 1.96

Source of measurements: the CheMixHub drug solubility set
